Ref: the supplement of paper PMC7877785

- method-notes: self-splicing fitness, log relative to wild type (ln ratio); higher = more splicing; Tetrahymena group I intron in knt gene, E. coli kanamycin selection, DiMSum; sequences stand for … in CUCUCU…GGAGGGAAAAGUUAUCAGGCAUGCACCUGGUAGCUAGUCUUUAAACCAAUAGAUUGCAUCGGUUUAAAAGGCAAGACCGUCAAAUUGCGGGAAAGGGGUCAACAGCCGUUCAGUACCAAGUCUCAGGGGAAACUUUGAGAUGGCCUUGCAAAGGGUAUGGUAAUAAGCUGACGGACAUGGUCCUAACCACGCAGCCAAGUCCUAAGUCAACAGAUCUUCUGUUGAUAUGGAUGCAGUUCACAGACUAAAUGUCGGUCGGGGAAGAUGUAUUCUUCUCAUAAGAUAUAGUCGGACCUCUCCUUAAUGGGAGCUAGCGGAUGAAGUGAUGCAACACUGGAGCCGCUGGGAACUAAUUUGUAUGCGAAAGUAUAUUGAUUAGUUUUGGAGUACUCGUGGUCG;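 also: selection with 25 µg/mL kanamycin versus none on LB agar overnight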
- assay-setup: 30 °C
observation-type: self-splicing fitness (ln)
Note: the reply should be a number with no unit written.

Challenge: Look up self-splicing fitness (ln) for this sequence: CCACAGCAAUAUUACGACAG
Response given: -1.06

Challenge: Look up self-splicing fitness (ln) for this sequence: AGUAAGCAAUAUUACGCGCU
Response given: -2.64

Challenge: Look up self-splicing fitness (ln) for this sequence: UUUAAGCAAUAUUACGGGUG
Response given: -1.2

Challenge: Look up self-splicing fitness (ln) for this sequence: AUUAAGCAAUAUUACGCGUA
Response given: -1.27

Challenge: Look up self-splicing fitness (ln) for this sequence: CGCUAGCAAUAUUACGUCAU
Response given: -3.97

Challenge: Look up self-splicing fitness (ln) for this sequence: CACGAGCAAUAUUACGGGUG
Response given: -3.79

Challenge: Look up self-splicing fitness (ln) for this sequence: GUCCAGCAAUAUUACGGAUU
Response given: -2.84

Challenge: Look up self-splicing fitness (ln) for this sequence: AAAUAGCAAUAUUACGGCGC
Response given: -1.11

Challenge: Look up self-splicing fitness (ln) for this sequence: CUAAAGCAAUAUUACGGAAU
Response given: -3.72

Challenge: Look up self-splicing fitness (ln) for this sequence: CGUCAGCAAUAUUACGCAAG
Response given: -0.161

Challenge: Look up self-splicing fitness (ln) for this sequence: AACGAGCAAUAUUACGUGUG
Response given: -3.18

Challenge: Look up self-splicing fitness (ln) for this sequence: CGUGAGCAAUAUUACGCACU
Response given: -0.892

Challenge: Look up self-splicing fitness (ln) for this sequence: AGUCAGCAAUAUUACGCAGU
Response given: -1.89

Challenge: Look up self-splicing fitness (ln) for this sequence: CCUAAGCAAUAUUACGCCUU
Response given: -3.22

Challenge: Look up self-splicing fitness (ln) for this sequence: CGGCAGCAAUAUUACGUUAU
Response given: -2.5

Challenge: Look up self-splicing fitness (ln) for this sequence: CAGCAGCAAUAUUACGUUGC
Response given: -2.61

====

- method-notes: self-splicing fitness, log relative to wild type (ln ratio); higher = more splicing; Tetrahymena group I intron in knt gene, E. coli kanamycin selection, DiMSum; sequences stand for … in CUCUCU…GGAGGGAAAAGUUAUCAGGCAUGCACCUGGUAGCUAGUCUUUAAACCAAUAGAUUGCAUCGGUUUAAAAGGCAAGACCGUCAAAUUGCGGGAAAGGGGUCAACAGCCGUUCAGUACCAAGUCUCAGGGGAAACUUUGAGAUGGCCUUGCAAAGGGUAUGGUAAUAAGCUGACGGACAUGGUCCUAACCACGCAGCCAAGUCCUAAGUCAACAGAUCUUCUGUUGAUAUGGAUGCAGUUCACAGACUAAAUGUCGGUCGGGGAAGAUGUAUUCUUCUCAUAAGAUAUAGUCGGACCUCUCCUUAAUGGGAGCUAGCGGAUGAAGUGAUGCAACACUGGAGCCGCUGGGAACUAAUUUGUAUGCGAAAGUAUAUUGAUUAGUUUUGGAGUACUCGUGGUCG
- assay-setup: 30 °C
observation-type: self-splicing fitness (ln)
Note: the reply should be a number with no unit written.

Some entries whose results are on file:
Challenge: Look up self-splicing fitness (ln) for this sequence: GAAGAGCAAUAUUACGAACA
Response given: -2.15

Challenge: Look up self-splicing fitness (ln) for this sequence: AGCAAGCAAUAUUACGGCGC
Response given: -0.695

Challenge: Look up self-splicing fitness (ln) for this sequence: CCGUAGCAAUAUUACGUCUA
Response given: -2.84

Challenge: Look up self-splicing fitness (ln) for this sequence: GCUAAGCAAUAUUACGGCCG
Response given: -3.06

Others:
Challenge: Look up self-splicing fitness (ln) for this sequence: UACAAGCAAUAUUACGCUUA
Response given: -2.33

Challenge: Look up self-splicing fitness (ln) for this sequence: GAUAAGCAAUAUUACGUCCA
Response given: -1.72

Challenge: Look up self-splicing fitness (ln) for this sequence: GAUCAGCAAUAUUACGGGUC
Response given: -3.38

Challenge: Look up self-splicing fitness (ln) for this sequence: AUUUAGCAAUAUUACGACUA
Response given: -0.0865

====

- method-notes: self-splicing fitness, log relative to wild type (ln ratio); higher = more splicing; Tetrahymena group I intron in knt gene, E. coli kanamycin selection, DiMSum; sequences stand for … in CUCUCU…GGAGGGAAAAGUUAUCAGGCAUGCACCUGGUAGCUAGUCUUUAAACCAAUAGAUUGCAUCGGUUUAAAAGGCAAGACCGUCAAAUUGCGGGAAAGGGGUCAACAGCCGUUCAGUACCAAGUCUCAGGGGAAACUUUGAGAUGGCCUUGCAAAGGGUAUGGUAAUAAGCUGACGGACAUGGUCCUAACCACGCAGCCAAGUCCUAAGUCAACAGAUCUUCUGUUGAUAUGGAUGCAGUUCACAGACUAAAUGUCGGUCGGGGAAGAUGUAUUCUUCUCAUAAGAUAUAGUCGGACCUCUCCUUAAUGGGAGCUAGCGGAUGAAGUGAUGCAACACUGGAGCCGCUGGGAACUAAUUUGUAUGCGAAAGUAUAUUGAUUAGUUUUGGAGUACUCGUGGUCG
- assay-setup: 37 °C
Catalogue of self-splicing fitness (ln) readings, one per entry.
Note: the reply should be a number with no unit written.

Some entries whose results are on file:
Challenge: Look up self-splicing fitness (ln) for this sequence: CAAGAGCAAUAUUACGGACG
Response given: 0.217

Challenge: Look up self-splicing fitness (ln) for this sequence: GGUGAGCAAUAUUACGUCAA
Response given: -2.78

Challenge: Look up self-splicing fitness (ln) for this sequence: UGGGAGCAAUAUUACGGACG
Response given: -0.236

Challenge: Look up self-splicing fitness (ln) for this sequence: GAGGAGCAAUAUUACGACUA
Response given: -1.47

Challenge: Look up self-splicing fitness (ln) for this sequence: GGCAAGCAAUAUUACGCAAC
Response given: -0.823

Here is another sequence to look at.
Challenge: Look up self-splicing fitness (ln) for this sequence: GGUGAGCAAUAUUACGGCUG
Response given: -0.543

====

- method-notes: self-splicing fitness, log relative to wild type (ln ratio); higher = more splicing; Tetrahymena group I intron in knt gene, E. coli kanamycin selection, DiMSum; sequences stand for … in CUCUCU…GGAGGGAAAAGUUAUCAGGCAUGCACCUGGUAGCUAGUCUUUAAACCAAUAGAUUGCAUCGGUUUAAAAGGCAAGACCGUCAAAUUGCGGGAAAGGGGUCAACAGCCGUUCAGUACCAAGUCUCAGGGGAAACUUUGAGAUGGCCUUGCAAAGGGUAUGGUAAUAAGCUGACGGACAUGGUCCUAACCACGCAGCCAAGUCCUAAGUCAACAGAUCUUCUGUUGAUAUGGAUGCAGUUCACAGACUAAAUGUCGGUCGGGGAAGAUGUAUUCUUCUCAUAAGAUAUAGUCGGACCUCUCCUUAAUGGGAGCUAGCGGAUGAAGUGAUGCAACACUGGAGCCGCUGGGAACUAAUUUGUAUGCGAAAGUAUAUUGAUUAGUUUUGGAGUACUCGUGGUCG
- assay-setup: 30 °C
observation-type: self-splicing fitness (ln)
Note: the reply should be a number with no unit written.

Challenge: Look up self-splicing fitness (ln) for this sequence: CCGUAGCAAUAUUACGCUGC
Response given: -2.07

Others:
Challenge: Look up self-splicing fitness (ln) for this sequence: UGUCAGCAAUAUUACGCUGU
Response given: -3.1

Challenge: Look up self-splicing fitness (ln) for this sequence: CAAAAGCAAUAUUACGUGGC
Response given: -3.26

Challenge: Look up self-splicing fitness (ln) for this sequence: UUUUAGCAAUAUUACGUUAU
Response given: -2.53

Challenge: Look up self-splicing fitness (ln) for this sequence: CUGCAGCAAUAUUACGUCUU
Response given: -3.15

Challenge: Look up self-splicing fitness (ln) for this sequence: UCUUAGCAAUAUUACGACAC
Response given: -2.77

Challenge: Look up self-splicing fitness (ln) for this sequence: UCGUAGCAAUAUUACGGACG
Response given: -2.58

Challenge: Look up self-splicing fitness (ln) for this sequence: CGAAAGCAAUAUUACGAUCA
Response given: -0.312
